target-entity: Histone deacetylase 3 (Homo sapiens, UniProt O15379)
Sequence (O15379 whole entry): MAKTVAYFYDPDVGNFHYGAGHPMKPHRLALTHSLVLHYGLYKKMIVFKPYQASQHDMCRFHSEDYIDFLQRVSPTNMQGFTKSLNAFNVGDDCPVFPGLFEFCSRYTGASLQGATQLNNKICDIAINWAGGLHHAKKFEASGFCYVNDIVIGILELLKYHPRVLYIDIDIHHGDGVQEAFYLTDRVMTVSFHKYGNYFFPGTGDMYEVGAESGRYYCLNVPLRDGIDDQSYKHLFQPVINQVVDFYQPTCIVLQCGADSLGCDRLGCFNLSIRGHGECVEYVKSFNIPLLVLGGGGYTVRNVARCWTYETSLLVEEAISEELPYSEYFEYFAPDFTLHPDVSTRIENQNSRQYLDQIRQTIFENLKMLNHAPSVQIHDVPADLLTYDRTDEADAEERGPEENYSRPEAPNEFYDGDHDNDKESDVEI
protocol-summary: Inhibition of HDAC3 (unknown origin)
parameter-measured: IC50 (µM)

[I] O=C(NO)c1ccc(CC(=O)N(CCO)c2ccccc2)cc1
[II] CCCCN(Cc1ccc(C(=O)NO)cc1)C(=O)Nc1ccccc1
[III] O=C(NO)c1ccc(CN2CCCc3ccccc32)cc1
Asked: Rank order required: IC50, descending. Form entry: ranked labels (order as requested).
Given back: III, II, I

###

target-entity: UniProt Q9UBN7
Sequence (Q9UBN7 whole entry): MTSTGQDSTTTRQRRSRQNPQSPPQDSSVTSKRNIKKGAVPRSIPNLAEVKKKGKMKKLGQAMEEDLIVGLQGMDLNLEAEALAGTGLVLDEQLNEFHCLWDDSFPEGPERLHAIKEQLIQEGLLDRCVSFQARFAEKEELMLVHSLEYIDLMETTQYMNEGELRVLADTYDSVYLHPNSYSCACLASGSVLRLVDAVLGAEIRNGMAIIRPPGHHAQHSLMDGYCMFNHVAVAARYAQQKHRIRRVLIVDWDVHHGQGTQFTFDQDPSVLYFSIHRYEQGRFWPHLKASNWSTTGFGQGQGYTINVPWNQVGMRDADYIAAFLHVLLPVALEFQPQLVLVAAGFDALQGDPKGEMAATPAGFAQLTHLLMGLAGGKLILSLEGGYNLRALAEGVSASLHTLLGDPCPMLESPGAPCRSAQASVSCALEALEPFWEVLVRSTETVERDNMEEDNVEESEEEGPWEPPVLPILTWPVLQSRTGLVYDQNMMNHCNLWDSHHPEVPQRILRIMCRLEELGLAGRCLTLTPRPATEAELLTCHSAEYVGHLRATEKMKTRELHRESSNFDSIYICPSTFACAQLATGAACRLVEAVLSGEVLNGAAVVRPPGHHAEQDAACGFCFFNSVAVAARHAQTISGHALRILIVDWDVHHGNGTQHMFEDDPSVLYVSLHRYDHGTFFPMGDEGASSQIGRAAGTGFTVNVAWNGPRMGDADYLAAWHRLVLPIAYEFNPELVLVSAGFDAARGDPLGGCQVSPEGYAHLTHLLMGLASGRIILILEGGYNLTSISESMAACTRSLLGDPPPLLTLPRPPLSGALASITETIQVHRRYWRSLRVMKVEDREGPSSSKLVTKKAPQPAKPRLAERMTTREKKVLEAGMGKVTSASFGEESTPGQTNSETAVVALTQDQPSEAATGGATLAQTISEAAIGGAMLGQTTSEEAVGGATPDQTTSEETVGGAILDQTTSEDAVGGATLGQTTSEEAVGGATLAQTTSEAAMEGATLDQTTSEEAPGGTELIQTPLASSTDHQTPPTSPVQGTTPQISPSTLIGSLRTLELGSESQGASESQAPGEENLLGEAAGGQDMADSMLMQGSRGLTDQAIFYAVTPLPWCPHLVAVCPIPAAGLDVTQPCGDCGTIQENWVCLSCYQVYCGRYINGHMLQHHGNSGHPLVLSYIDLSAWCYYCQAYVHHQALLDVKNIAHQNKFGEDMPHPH
protocol-summary: Inhibition of recombinant HDAC6 (unknown origin) using Boc-Lys(acetyl)-AMC as substrate preincubated for 15 mins followed by substrate addition and measured after 2 hrs by fluorescence based microplate reader analysis
parameter-measured: IC50 (nM)
Write the answer as a number in nM, unit excluded.

Asked: Recorded IC50 for CCNNC(=O)c1ccc(CN2c3ccccc3C=Cc3ccncc32)cc1 , please?
Given back: 257
